meta.source: patent US20240166765A1

Listed here: items and their measured % GM-CSF, 16 nM antibody, MDA-MB-231 cells + FVIIa.
biological target: human Tissue Factor (hTF), endogenously expressed on human TF-positive cells (human, UniProt P13726 33-295); assay: cell-based or functional assay
Hi! Could you send only the number? It should be in %, unit omitted.

Use the examples below as a reference point.
>  <BINDER>
anti-TF antibody 25G9 (antibody, human IgG1, kappa, V domains shown, Human IgG1) VH: QVQLVQSGAEVKKPGASVKVSCKASGYTFRSYGISWVRQAPGQGLEWMGWVAPYSGNTNYAQKLQGRVTMTTDTSTSTAYMELRSLRSDDTAVYYCARDAGTYSPYGYGMDVWGQGTTVTVSS VL: DIQMTQSPSTLSASVGDRVTITCQASQSIDSWLAWYQQKPGKAPKLLIYSASYLESGVPSRFSGSGSGTEFTLTISSLQPDDFATYYCQRFQSLPPFTFGGGTKVEIKR

>  <MEASURED_NUMBER>
26

$$$$
>  <BINDER>
anti-TF antibody 43D (antibody, human IgG1, V domains shown) VH: QVQLQQWGAGLLKPSETLSLTCAVYGGSLSGYYWSWIRQPPGKGLEWIGEIGASGSTRYNPSLKSRVTISVDTSKNQFSLKLSSVTAADTAVYYCARDTPYYYEGGYYYYMDVWGKGTTVTVSS VL: EIVLTQSPGTLSLSPGERATLSCRASQSVSSSYLAWYQQKPGQAPRLLIYGASSRATGIPDRFSGSGSGTDFTLTISRLEPEDFAVYYCQQVGVVPYTFGGGTKVEIK

>  <MEASURED_NUMBER>
13

$$$$

Turning now to a further binder:
Give the reported % GM-CSF, 16 nM antibody, MDA-MB-231 cells + FVIIa for this binder. anti-TF antibody 39A (antibody, human IgG1, V domains shown, Human IgG1) VH: QVQLVQSGAEVKKPGSSVKVSCKASGGTFSSNAIGWVRQAPGQGLEWMGSIIPIIGFANYAQKFQGRVTITADESTSTAYMELSSLRSEDTAVYYCARDSGYYYGASSFGMDVWGQGTTVTVSS VL: EIVMTQSPATLSVSPGERATLSCRASQSVSSNLAWYQQKPGQAPRLLIYGASTRATGIPARFSGSGSGTEFTLTISSLQSEDFAVYYCEQYNNLPLTFGGGTKVEIK
5
